B1: SCNN1D (parent)
chain: IRVMVHGRNHTPFLGHHSFSVRPG

Variants of: B1
METHOD_SUMMARY: protein stability index of a GFP-peptide fusion (GPS, HEK-293T) (PSI 1-6); higher = more stable;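 further: lentivirally expressed fusions sorted by FACS into six bins by GFP to DsRed ratio, PSI derived from sequencing read proportions per bin multiplied by bin number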
CONDITION_INFO: c terminus: a fixed tail appended
Binary classification by protein stability index, with 3 as an inclusive lower bound for 1.0; all other cases are 0.0.

>>> cat("H10E")
0.0
>>> cat("L14N")
0.0
>>> cat("H17R")
0.0
>>> cat("H6F")
0.0
>>> cat("V21A")
0.0
>>> cat("H16S")
0.0
>>> cat("H17T")
0.0
>>> cat("P23A")
0.0
>>> cat("V5Q")
0.0
>>> cat("F13G")
0.0
>>> cat("V3H")
0.0
>>> cat("H16Q")
1.0
>>> cat("G7T")
0.0
>>> cat("H6K")
1.0
>>> cat("P12Y")
0.0
>>> cat("G24K")
0.0
>>> cat("N9G")
0.0
>>> cat("M4A")
0.0
>>> cat("H17V")
0.0
>>> cat("G7R")
0.0
>>> cat("H17Y")
1.0
>>> cat("G24D")
0.0
>>> cat("P23T")
0.0
>>> cat("F13N")
0.0
>>> cat("R2A")
0.0
>>> cat("F13L")
0.0
>>> cat("I1A")
0.0
>>> cat("F19H")
0.0
>>> cat("H6C")
0.0
>>> cat("H17G")
1.0
>>> cat("R22G")
0.0
>>> cat("R8A")
0.0
>>> cat("R22P")
0.0
>>> cat("V3G")
0.0
>>> cat("R2Q")
0.0
>>> cat("N9M")
1.0
>>> cat("R22D")
0.0
>>> cat("R8E")
0.0
>>> cat("I1T")
0.0
>>> cat("G15Q")
0.0
>>> cat("F13H")
0.0
>>> cat("R22S")
0.0
>>> cat("V3Q")
0.0
>>> cat("F19R")
0.0
>>> cat("I1L")
0.0
>>> cat("S20T")
0.0
>>> cat("I1S")
1.0
>>> cat("V5E")
0.0
>>> cat("G7I")
0.0
>>> cat("G7K")
0.0
>>> cat("P12G")
1.0
>>> cat("I1H")
0.0
>>> cat("V3N")
0.0
>>> cat("I1D")
0.0
>>> cat("V3P")
0.0
>>> cat("V21D")
0.0
>>> cat("V5D")
0.0
>>> cat("I1W")
0.0
>>> cat("I1F")
0.0
>>> cat("P12R")
1.0
>>> cat("V3A")
0.0
>>> cat("H17L")
1.0
>>> cat("V5S")
0.0
>>> cat("H6A")
0.0
>>> cat("H6D")
0.0
>>> cat("L14I")
0.0
>>> cat("P23N")
0.0
>>> cat("V21R")
0.0
>>> cat("M4D")
0.0
>>> cat("R22M")
1.0
>>> cat("H6E")
0.0
>>> cat("G24R")
0.0
>>> cat("H10V")
1.0
>>> cat("N9Y")
1.0
>>> cat("F19I")
0.0
>>> cat("F13R")
0.0
>>> cat("R22W")
1.0
>>> cat("I1P")
0.0
